experiment.description: Distribution in organs of rats killed with CO2 (absence of general circulation);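 further: tissue concentration in nmol/g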
applied.conditions: 5 hrs after 0.3 mmol/kg diethylaminoethyl acetylsalicylate HCl salt on back of killed rats
Reported concentration in Leg muscle is given for each of the following compounds.
Entry rule: numbers only, all in nmol/g.

>>> df
                                   compound  result
0   CCN(CC)CCOC(=O)c1ccccc1OC(C)=O.Cl [P-1]     5.2
1  CCN(CC)CCOc1ccccc1C(=O)O [diethylaminoethyl salicylic acid]     6.2
2  CC(=O)Oc1ccccc1C(=O)O [aspirin, acetylsalicylic acid, reference compound]     6.7

Incoming: # lookup: concentration in Leg muscle of O=C(O)c1ccccc1O [salicylic acid]
Outgoing: 41.4

----------
Tested on: normal SD rats (SLAC/SD)
experiment.description: Blood glucose in normal SD rats treated with HPCs of NSAIAs
Type: in vivo
applied.conditions: 30 mg/kg transdermally once per day, no fasting
quantity: blood glucose, Average (Week 2-5) (mmol/L)
Entry rule: numbers only, all in mmol/L.

>>> print(df.to_string())
                              smiles_string  result
0  CC(=O)Nc1ccc(OC(=O)c2ccccc2OC(=O)CCCN(C)C)cc1.Cl     5.8

// below: blood glucose, Average (Week 2-5) requested for another compound
Incoming: # lookup: blood glucose, Average (Week 2-5) of `CC(=O)Oc1ccc(-c2ccc(F)cc2F)cc1C(=O)O.CCN(CC)CCOC(=O)c1cc(-c2ccc(F)cc2F)ccc1OC(C)=O`
Outgoing: 5.7

----------
System: SLAC/DB/DB obese mice
experiment.description: Blood glucose and blood lipid levels in DB/DB mice
Assay type: in vivo
applied.conditions: 30 mg/kg transdermally once per day
quantity: blood glucose, Day 1 (mmol/L)
Entry rule: numbers only, all in mmol/L.

Incoming: # lookup: blood glucose, Day 1 of CCN(CC)CCOC(=O)c1ccccc1OC(C)=O.Cl [P-1]
Outgoing: 14.1

Incoming: Try the molecule CCN(CC)CCOC(=O)c1ccccc1OC(=O)c1ccccc1OC(=O)c1ccccc1OC(C)=O.Cl [P-60]
Outgoing: 14.8

----------
Test system: human myeloma cell line implanted into mice
experiment.description: Survival of mice with multiple myeloma (Example 110, Study B)
Assay type: in vivo
applied.conditions: 3 mg/kg per day, transdermally, n=5
Description: Study B: For evaluation of antitumor activity, a human myeloma cell line derived from the ascites of a patient with multiple myeloma was implanted into mice. The experiment was carried out on 17 groups of mice. […]
Reported Survival Period is given for each of the following molecules.
Entry rule: numbers only, all in days.

>>> df
                                   molecule         quantity  unit_spec  result
0  N[C@@H](Cc1ccc(N(CCCl)CCCl)cc1)C(=O)O [melphalan, reference compound]  Survival Period       days    45.6
1  Br.CCN(CC)CCOC(=O)[C@H](Cc1ccc(N(CCCl)CCCl)cc1)NC(C)=O  Survival Period       days    87.5
2  Br.CCN(CC)CCOC(=O)CCCc1ccc(N(CCCl)CCCl)cc1  Survival Period       days    91.5

Incoming: # lookup: Survival Period of O=C(O)CCCc1ccc(N(CCCl)CCCl)cc1 [chlorambucil, reference compound]
Outgoing: 44.6

----------
experiment.description: Distribution in milk of sheep after transdermal HPC of ibuprofen
Assay type: in vivo
applied.conditions: female, topical, 2 hr after 0.3 mmol/kg diethylaminoethyl 2-(ρ-isobutylphenyl)propionate.citric acid salt on back, read-out: amount found in the milk
quantity: concentration at 2 h (µM)
Entry rule: numbers only, all in µM.

Incoming: # lookup: concentration at 2 h of CC(C)Cc1ccc(C(C)C(=O)O)cc1 (stereo not shown) [ibuprofen, 2-(ρ-isobutylphenyl)propionic acid, reference compound]
Outgoing: 30
